- APPLIED_CONDITIONS: 328.15 K; 101 kPa; Liquid
PARAMETER_MEASURED: viscosity (mPa·s)

The cases that follow already have their viscosity on record.
{"MOLECULE": "CCCCCCCO", "EXPERIMENTAL_RESULT": 2.434}
{"MOLECULE": "CCCCCCCCO", "EXPERIMENTAL_RESULT": 2.931}
{"MOLECULE": "CCCCCCCCCCO", "EXPERIMENTAL_RESULT": 3.928}

I. CCCCCCCCCO
II. CCCCn1cc[n+](C)c1.N#C[S-] [1-butyl-3-methylimidazolium thiocyanate]
Task: Could you please tell me which of these two has the higher viscosity: I or II ? To answer, give the label that identifies your chosen option.
Result: II
(II: 16.7 mPa·s, I: 3.452 mPa·s)

* * *

- APPLIED_CONDITIONS: 298.15 K; 101 kPa; Liquid
PARAMETER_MEASURED: mass density (kg/m3)

{"COMPOUND": "CCCCCCCO [heptan-1-ol]", "mass density (kg/m3)": 818.81}
{"COMPOUND": "CCCCCCCCCO [nonan-1-ol]", "mass density (kg/m3)": 824.27}
{"COMPOUND": "CCCCn1cc[n+](C)c1.N#C[S-] [1-butyl-3-methylimidazolium thiocyanate]", "mass density (kg/m3)": 1069.79}
{"COMPOUND": "CCCCCCCCCCO [decan-1-ol]", "mass density (kg/m3)": 826.38}
{"COMPOUND": "CCCCCCCCO [octan-1-ol]", "mass density (kg/m3)": 821.61}

* * *

- APPLIED_CONDITIONS: 298.15 K; 101 kPa; Liquid
PARAMETER_MEASURED: viscosity (mPa·s)

As a guide, the following entries are already answered.
{"COMPOUND": "CCCCCCCCCCO [decan-1-ol]", "OUTPUT_UNIT": "mPa·s", "EXPERIMENTAL_RESULT": 11.09}
{"COMPOUND": "CCCCCCCCO [octan-1-ol]", "OUTPUT_UNIT": "mPa·s", "EXPERIMENTAL_RESULT": 7.398}

I. CCCCCCCO [heptan-1-ol]
II. CCCCCCCCCO [nonan-1-ol]
III. CCCCn1cc[n+](C)c1.N#C[S-] [1-butyl-3-methylimidazolium thiocyanate]
Task: Please list the entries, largest viscosity first. Form entry: labels listed in requested order.
Result: III, II, I

* * *

- APPLIED_CONDITIONS: 348.15 K; 101 kPa; Liquid
PARAMETER_MEASURED: viscosity (mPa·s)

Example compounds with recorded viscosity:
{"COMPOUND": "CCCCCCCCCO", "viscosity, mPa·s": 2.256}
{"COMPOUND": "CCCCCCCCO", "viscosity, mPa·s": 1.782}

a. CCCCn1cc[n+](C)c1.N#C[S-] [1-butyl-3-methylimidazolium thiocyanate]
b. CCCCCCCCCCO
Task: Compare a and b and name the one whose reported viscosity is smaller. Label of pick, please.
Result: b

* * *

- APPLIED_CONDITIONS: 348.15 K; 101 kPa; Liquid
PARAMETER_MEASURED: mass density (kg/m3)

{"MOLECULE": "CCCCCCCCCO", "OUTPUT_UNIT": "kg/m3", "mass density": 788.72}
{"MOLECULE": "CCCCCCCO", "OUTPUT_UNIT": "kg/m3", "mass density": 782.08}
{"MOLECULE": "CCCCCCCCO", "OUTPUT_UNIT": "kg/m3", "mass density": 785.59}
{"MOLECULE": "CCCCCCCCCCO", "OUTPUT_UNIT": "kg/m3", "mass density": 791.21}
{"MOLECULE": "CCCCn1cc[n+](C)c1.N#C[S-] [1-butyl-3-methylimidazolium thiocyanate]", "OUTPUT_UNIT": "kg/m3", "mass density": 1040.7}

Source listed as the NIST ThermoML archive (doi:10.1021/je901043q).
